Values compiled from the supplement of paper PMC12636033.

Tested on: 2Sb-muMax20 (muMax20 with two 1,3-bis(methyl)benzene Cys staples, A13C/A17C and Q88C/A92C, C-terminal Lys)
Assay: PBM 8-mer E-score (E-score (rank enrichment, -0.5 to 0.5)); higher = stronger preferential binding
Whole data set: some 33,000 sequences, median “E-score (rank enrichment, -0.5 to 0.5)” near -0.0028, cut for the highest 2% near 0.23. This excerpt belongs to a sample that is enriched for the highest values.
Kindly return YES if reported PBM 8-mer E-score is no lower than -0.03; return NO if it is lower.

>  <residueSequence>
CACCCCTA

>  <assignedClass>
YES

$$$$
>  <residueSequence>
AACAGTCC

>  <assignedClass>
NO

$$$$
>  <residueSequence>
ACTGAAAA

>  <assignedClass>
YES

$$$$
>  <residueSequence>
GCTAGAAC

>  <assignedClass>
NO

$$$$

Is the recorded value of PBM 8-mer E-score equal to or greater than -0.03 for this sequence? CAGTATAC YES

Assess whether reported PBM 8-mer E-score for ATGCCATC sits at -0.03 or higher. YES

Does the sequence CGGATTTA have recorded PBM 8-mer E-score that is -0.03 or more? NO

Could you tell me if the measured PBM 8-mer E-score of TTAGATAA reaches -0.03 or more? YES

Textbook exercise: given the entry AGGATAAT , state whether its PBM 8-mer E-score is greater than or equal to -0.03. YES

* * *

Test system: 2Sb-muMax20 (muMax20 with two 1,3-bis(methyl)benzene Cys staples, A13C/A17C and Q88C/A92C, C-terminal Lys)
Test: PBM 8-mer E-score (E-score (rank enrichment, -0.5 to 0.5)); higher = stronger preferential binding
In all, about 33,000 sequences were measured (“E-score (rank enrichment, -0.5 to 0.5)”: median about -0.0028, highest 2% from about 0.23 on). This excerpt belongs to a sample that is enriched for the highest values.
# PBM 8-mer E-score listing for each entry below
Just the number, please, no unit after it.

Illustrative cases are given below, each with its answer.
>  <residueSequence>
CGTGGGAC

>  <assayResult>
0.0245

$$$$
>  <residueSequence>
GATTGCCC

>  <assayResult>
-0.0998

$$$$
>  <residueSequence>
CGAGTCAG

>  <assayResult>
-0.177

$$$$
>  <residueSequence>
TACAATAA

>  <assayResult>
0.331

$$$$
>  <residueSequence>
CGAACCGA

>  <assayResult>
-0.228

$$$$

Quick one: give measured PBM 8-mer E-score for AATAGCAC 0.0775

Give the value of PBM 8-mer E-score reported for the following: AATAGCAT 0.262

Return PBM 8-mer E-score for the following sequence: CAACCTGA -0.0727

Annotate the sequence CATATTAC with its measured PBM 8-mer E-score. 0.146

Please give measured PBM 8-mer E-score of the following entry: AAAAGCTA 0.236

Look up and report measured PBM 8-mer E-score for this entry: CACAATAA 0.0489

State, in one line, measured PBM 8-mer E-score of GATAGCTA 0.0488

Could you please provide reported PBM 8-mer E-score for AACGTGGT ? Thanks! 0.224

Give the measured PBM 8-mer E-score for CACACTGA -0.0965

Input GGAGAGAA , output reported PBM 8-mer E-score. -0.0248

* * *

Measured PBM 8-mer E-score values are reported for all entries that follow.
System: 2Sb-muMax20 (muMax20 with two 1,3-bis(methyl)benzene Cys staples, A13C/A17C and Q88C/A92C, C-terminal Lys)
Test: PBM 8-mer E-score (E-score (rank enrichment, -0.5 to 0.5)); higher = stronger preferential binding
Whole data set: some 33,000 sequences, median “E-score (rank enrichment, -0.5 to 0.5)” near -0.0028, cut for the highest 2% near 0.23. The sample as a whole holds a higher share of the highest values than the screen did.

>  <residueSequence>
GATCATAA

>  <assayResult>
0.278

$$$$
>  <residueSequence>
CCGAGCCA

>  <assayResult>
-0.115

$$$$
>  <residueSequence>
CGTGTGAA

>  <assayResult>
-0.155

$$$$
>  <residueSequence>
TCACCCCA

>  <assayResult>
0.368

$$$$

Input CGCTAATA , output reported PBM 8-mer E-score. 0.0712

* * *

Test system: 2Sb-muMax20 (muMax20 with two 1,3-bis(methyl)benzene Cys staples, A13C/A17C and Q88C/A92C, C-terminal Lys)
Experiment: PBM 8-mer E-score (E-score (rank enrichment, -0.5 to 0.5)); higher = stronger preferential binding
The full ranking holds about 33,000 sequences; the median of “E-score (rank enrichment, -0.5 to 0.5)” is about -0.0028, and the highest 2% start at about 0.23. This excerpt belongs to a sample that is enriched for the highest values.
Returns true (1) if the recorded PBM 8-mer E-score is greater than or equal to 0.1, and false (0) otherwise.

Recorded results for 5 sequences are shown here.
>  <residueSequence>
GATTAATC

>  <assignedClass>
false (0)

$$$$
>  <residueSequence>
CATAATAA

>  <assignedClass>
true (1)

$$$$
>  <residueSequence>
CCCCCAAC

>  <assignedClass>
false (0)

$$$$
>  <residueSequence>
CGAGTTAA

>  <assignedClass>
false (0)

$$$$
>  <residueSequence>
AGTTGTAG

>  <assignedClass>
false (0)

$$$$

# bool: PBM 8-mer E-score of GCCCCAAC >= 0.1 true (1)

Decide: PBM 8-mer E-score of AAGCGCTA >= 0.1? false (0)

Record CAGGAATA ; criterion: PBM 8-mer E-score no lower than 0.1. Met? false (0)

Test whether the sequence AACTTTGT records PBM 8-mer E-score of 0.1 or higher. true (1)

Does PBM 8-mer E-score meet or surpass 0.1 for AATGGCGA ? true (1)

Textbook exercise: given the entry AGTAATAC , state whether its PBM 8-mer E-score is greater than or equal to 0.1. false (0)

* * *

Test system: 2Sb-muMax20 (muMax20 with two 1,3-bis(methyl)benzene Cys staples, A13C/A17C and Q88C/A92C, C-terminal Lys)
Test: PBM 8-mer E-score (E-score (rank enrichment, -0.5 to 0.5)); higher = stronger preferential binding
The full ranking holds about 33,000 sequences; the median of “E-score (rank enrichment, -0.5 to 0.5)” is about -0.0028, and the highest 2% start at about 0.23. Shown is part of a subset that was picked to be rich in the highest values.
PBM 8-mer E-score values by entry
API doc: respond with a numeric literal and nothing else, no unit.

As a guide, the following entries are already answered.
>  <residueSequence>
AATGAATA

>  <PBM 8-mer E-score>
0.156

$$$$
>  <residueSequence>
ACACGTAC

>  <PBM 8-mer E-score>
0.0764

$$$$
>  <residueSequence>
AGCCTATG

>  <PBM 8-mer E-score>
-0.168

$$$$
>  <residueSequence>
AACTTGGA

>  <PBM 8-mer E-score>
0.0353

$$$$
>  <residueSequence>
TCACGTGA

>  <PBM 8-mer E-score>
0.439

$$$$
>  <residueSequence>
CATGGGTA

>  <PBM 8-mer E-score>
0.053

$$$$
>  <residueSequence>
AGTGGGAG

>  <PBM 8-mer E-score>
-0.0115

$$$$
>  <residueSequence>
CACTTGGG

>  <PBM 8-mer E-score>
0.176

$$$$

Write down PBM 8-mer E-score measured for item AACGACAT 0.126

Name the recorded PBM 8-mer E-score of the item AAGCCGTG in your answer. -0.228

Fill in reported PBM 8-mer E-score for this entry: ACTTATGC -0.0277

Give me measured PBM 8-mer E-score, please, for this sequence: CATGGCAA -0.0308

Query PBM 8-mer E-score for AGTGGGCA 0.0757

Look up and report measured PBM 8-mer E-score for this entry: GGTGGGTA 0.282

* * *

Test system: 2Sb-muMax20 (muMax20 with two 1,3-bis(methyl)benzene Cys staples, A13C/A17C and Q88C/A92C, C-terminal Lys)
Assay: PBM 8-mer E-score (E-score (rank enrichment, -0.5 to 0.5)); higher = stronger preferential binding
In all, about 33,000 sequences were measured (“E-score (rank enrichment, -0.5 to 0.5)”: median about -0.0028, highest 2% from about 0.23 on). This excerpt belongs to a sample that is enriched for the highest values.
Label scheme for PBM 8-mer E-score: lower than -0.03 is FALSE, -0.03 and above is TRUE.

Solved cases (3 shown):
>  <residueSequence>
CACAGCAC

>  <assignedClass>
TRUE

$$$$
>  <residueSequence>
AGACTAGG

>  <assignedClass>
FALSE

$$$$
>  <residueSequence>
GCGCCCCA

>  <assignedClass>
TRUE

$$$$

In plain terms: is recorded PBM 8-mer E-score at least -0.03 for CACACCTG ? FALSE

Is PBM 8-mer E-score at least -0.03? Consider AGGGGCTG TRUE

Please check the record AGGCATAG and state if its PBM 8-mer E-score is at or above -0.03. TRUE

Is PBM 8-mer E-score at least -0.03? Consider ATCGGGTG FALSE

Identify whether the reported PBM 8-mer E-score of the following sequence is -0.03 or greater: AATATTCT TRUE
